Test system: RXF 393 renal
Experiment: NCI-60 one-dose screen, 48 h
Conditions: 10 µM unless noted
The panel holds about 83,000 compounds, 20% with a hit somewhere; the sample as a whole holds those more often. Activity calls are given as the source filed them. The calls were made as follows: active = growth percent below 10; inactive = the rest.
Respond using exactly one of the listed classes: t (active), f (inactive)

Would you please look over these solved cases?
Exam item: Tell me the recorded outcome of this test for Cc1cc2nc(C(Cl)Cl)nc(-c3ccco3)n2n1 .
Marked response: f

Exam item: Tell me the recorded outcome of this test for Cc1nn(-c2ccccc2)cc1/C=N/Nc1nc(Nc2ccccc2)nc(Nc2ccc(S(N)(=O)=O)cc2)n1 .
Marked response: t

Exam item: Tell me the recorded outcome of this test for Cc1ccc(NC(=O)c2cc(/C=C/C(=O)NO)cc(C(F)(F)F)c2)cc1Nc1nccc(-c2cccnc2)n1 .
Marked response: t

Next:
Exam item: Tell me the recorded outcome of this test for Cc1ccc(-c2cc3nc(C(Cl)Cl)nc(-c4ccccc4)n3n2)cc1 .
Marked response: f

Exam item: Tell me the recorded outcome of this test for COc1ccc(Cn2cc3c(c2-c2cc(OC)c(OC)c(OC)c2)CCCc2cnoc2-3)cc1N .
Marked response: t
